B1: NECAB1 (parent)
chain: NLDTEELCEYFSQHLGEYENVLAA

- Variants of: B1
- experimental_details: protein stability index of a GFP-peptide fusion (GPS, HEK-293T) (PSI 1-6); higher = more stable;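 note: lentivirally expressed fusions sorted by FACS into six bins by GFP to DsRed ratio, PSI derived from sequencing read proportions per bin multiplied by bin number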
- applied_conditions: c terminus: a fixed tail appended
# protein stability index >= 4 gives True, anything below gives False

In plain terms: is recorded protein stability index at least 4 for `A23D` ?
True

Next:
In plain terms: is recorded protein stability index at least 4 for `E9F` ?
False

In plain terms: is recorded protein stability index at least 4 for `L22Q` ?
True

In plain terms: is recorded protein stability index at least 4 for `L22D` ?
True

In plain terms: is recorded protein stability index at least 4 for `L15Y` ?
False

In plain terms: is recorded protein stability index at least 4 for `E19I` ?
True
